Values compiled from PubChem BioAssay (NCI).

System: OVCAR-3 ovarian
Experiment: NCI-60 one-dose screen, 48 h (100 = growth as untreated, 0 = no growth, -100 = all killed)
Conditions: 10 µM unless noted
About 83,000 compounds went through this panel and 20% of them were active in at least one assay; those are over-represented in the sample as a whole.
RESULT_TYPE: growth (%)
I only need the number, in %, no unit after it.

-- ask Query (molecule): COc1ccc(-c2nc3sc(-c4ccccc4)cn3n2)cc1 ; field requested: growth
-- reply 58.2

-- ask Same thing, different molecule: Cc1nc2ccccc2c(/C=C/c2ccc(Cl)cc2)c1C(=O)/C=C/c1cccs1
-- reply 82.2

-- ask Same thing, different molecule: CCCCN(C)N=Nc1ccc(C(N)=O)cc1
-- reply 103

-- ask Same thing, different molecule: CCCCCCn1c(-c2ccc(C(=O)O/N=C(\N)c3ccc4ccccc4c3)cc2)nc(-c2ccccc2)c1-c1ccccc1
-- reply 74.8

-- ask Same thing, different molecule: O=C(Cc1ccc2c(c1)OCCO2)Nc1nc2ccc(F)cc2s1
-- reply 104

-- ask Same thing, different molecule: COc1cc(CNS(=O)(=O)c2ccc(C)cc2)ccc1OCc1cn(-c2ccccc2)nn1
-- reply 85

-- ask Same thing, different molecule: O=[N+]([O-])c1ccccc1NCSc1ccc(Cl)cc1
-- reply 109

-- ask Same thing, different molecule: Clc1ccc(C(/C=C/c2sc(Cl)nc2Cl)=N/Nc2cc(Cl)cc(Cl)c2)cc1
-- reply 103

----------
System: NCI-H460 lung
Assay: NCI-60 one-dose screen, 48 h (100 = growth as untreated, 0 = no growth, -100 = all killed)
Conditions: 10 µM unless noted
This is part of a sample that, as a whole, favours compounds with a hit. Of some 83,000 tested, about 20% had one in any assay.
Measured growth by item
I only need the number, in %, no unit after it.

// solved cases for growth follow
[[record]]
molecule = "O=C(N/N=C/[C@H](O)[C@H](O)[C@H](O)CO)c1ccc(NC(=O)c2cccnc2)cc1"
measurement = 104

[[record]]
molecule = "O=C(N=c1oc2ccccc2cc1-c1cc2ccccc2[nH]1)Nc1ccc(Cl)cc1"
measurement = 99.6

[[record]]
molecule = "Cc1cccc(NCc2cn(-c3ccc(C(=O)O)cc3)nc2-c2ccc(C(=O)O)cc2)n1"
measurement = 104


-- ask Please state recorded growth (tested on NCI-H460 lung) of COc1ccc(CNC(=O)[C@H](O)[C@@H](N)Cc2ccccc2)cc1
-- reply 106

-- ask Same thing, different molecule: CC(=O)N1N=C(c2ccc(Nc3nc(Nc4ccc(F)cc4)nc(Nc4ccc(Cl)cc4)n3)cc2)CC1c1ccc(Cl)cc1 (centres undefined)
-- reply 107

-- ask Same thing, different molecule: Cn1cc(-c2cc3ncnc(Nc4ccc(CC(=O)Nc5cc(C(C)(C)C)nn5C)cc4)c3s2)cn1
-- reply 43.5

-- ask Same thing, different molecule: COc1ccc(CN2c3ccccc3Sc3ccccc32)c(F)c1
-- reply 11

-- ask Same thing, different molecule: Brc1c[n+](Cc2ccc3ccccc3c2)cn1Cc1ccc2ccccc2c1
-- reply 20.1

-- ask Same thing, different molecule: N#Cc1c(-c2ccccc2)nc(SCC(=O)Nc2nc(-c3ccc(Cl)cc3)cs2)[nH]c1=O
-- reply 106

----------
Tested on: PC-3 prostate
Assay: NCI-60 one-dose screen, 48 h (100 = growth as untreated, 0 = no growth, -100 = all killed)
Settings: 10 µM unless noted
Compounds without any hit were thinned out: in the full panel of roughly 83,000, 20% have a hit.
// assign MET if growth falls strictly below 90%, else NOT MET (ties count as NOT MET)

For orientation, consider the following solved cases.
[[record]]
molecule = "O=c1n(Cc2ccc3ccccc3c2)ccn1Cc1ccc2ccccc2c1"
tgt = "PC-3 prostate"
label_class = "NOT MET"

[[record]]
molecule = "CCCCOc1nc2ccc(OC)cc2cc1-c1cc(-c2ccc(Cl)cc2)nc(-c2ccc(Cl)cc2)c1"
tgt = "PC-3 prostate"
label_class = "NOT MET"

[[record]]
molecule = "O=CN(SSN(C=O)C1CCCCC1)C1CCCCC1"
tgt = "PC-3 prostate"
label_class = "NOT MET"


-- ask Below 90% on growth? Entry COc1ccc(OC)c(/C=C2\Oc3cc(OCCN4CCC(Cc5ccccc5)CC4)ccc3C2=O)c1
-- reply MET

-- ask Same thing, different compound: Cc1ccc2sc3c(NCCN)nc4ccccc4c3c(=O)c2c1
-- reply MET

----------
Test system: OVCAR-3 ovarian
Experiment: NCI-60 one-dose screen, 48 h (100 = growth as untreated, 0 = no growth, -100 = all killed)
Settings: 10 µM unless noted
This is part of a sample that, as a whole, favours compounds with a hit. Of some 83,000 tested, about 20% had one in any assay.
Could you label it True if measured growth is 60% or higher, and False otherwise?

For orientation, consider the following solved cases.
[[record]]
compound = "CC1(C)C2CC1C1(/C=N\\Nc3ccccc3)C(C2)C(C#N)(C#N)C1(C#N)C#N (stereo not given)"
label_class = "True"

[[record]]
compound = "COc1ccc(-c2nc3sc(-c4ccc(Cl)cc4)cn3n2)cc1"
label_class = "False"

[[record]]
compound = "CCOC(=O)C1=C(N)Oc2c(sc3c(C)cccc23)C1c1ccc(OC)cc1 (stereo not given)"
label_class = "False"

[[record]]
compound = "N#Cc1c(-c2ccc(Cl)cc2)nc(NCCO)[nH]c1=O"
label_class = "True"

[[record]]
compound = "NCCNc1nc2ccccc2c2c(=O)c3cccc(F)c3sc12"
label_class = "False"

[[record]]
compound = "Cc1ccccc1C(=O)NN"
label_class = "True"

[[record]]
compound = "O=C1CSC(c2c(Cl)cccc2Cl)N1c1nc(Cl)cc(=O)[nH]1 (stereo not given)"
label_class = "True"

[[record]]
compound = "CCN1C(=O)N(CC)C2Nn3c(s/c(=C4\\C(=O)Nc5ccccc54)c3=O)=NC21 (stereo not given)"
label_class = "False"

[[record]]
compound = "NC(=O)C1(Nc2ccc(Br)cc2)CCCC1"
label_class = "True"

[[record]]
compound = "Cc1oc2nc[nH]c(=O)c2c1C(=O)/C=C/c1ccc(Br)cc1"
label_class = "False"


As a next step, examine the compound that follows.
-- ask Decide: growth of CC(C)(C)NC(=O)C(OC(=O)c1cccc(Cl)c1)c1ccc(Cl)cc1 (stereo not given) >= 60%?
-- reply True

----------
Tested on: HOP-92 NSCLC
Test: NCI-60 one-dose screen, 48 h
Details: 10 µM unless noted
The panel holds about 83,000 compounds, 20% with a hit somewhere; the sample as a whole holds those more often. Calls of active or inactive are those of the source. Rule for the calls: active = growth percent below 10; inactive = the rest.
Hi there, use one of these labels in your reply, thanks! active, inactive

[[record]]
compound = "COc1ccc(-c2nc3sc(-c4ccc(Cl)cc4)cn3n2)cc1"
label_class = "inactive"


-- ask Assay result, entry CCCCOc1ccc(/C=N/NC(N)=S)cc1 — outcome?
-- reply inactive

-- ask Same thing, different compound: Nc1ccc(Sc2ccc([N+](=O)[O-])c3nonc23)cc1
-- reply inactive

----------
Test system: NCI-H23 lung
Test: NCI-60 one-dose screen, 48 h (100 = growth as untreated, 0 = no growth, -100 = all killed)
Settings: 10 µM unless noted
About 83,000 compounds went through this panel and 20% of them were active in at least one assay; those are over-represented in the sample as a whole.
RESULT_TYPE: growth (%)
I only need the number, in %, no unit after it.

// solved cases for growth follow
[[record]]
molecule = "CN(C)CCS(=O)(=O)Nc1cc(-c2ccc3ncc(C#N)c(Nc4ccc(F)c(Cl)c4)c3c2)cnc1Cl"
reading_unit = "%"
measurement = -28.5

[[record]]
molecule = "O=C(CSc1nc2ccccc2[nH]1)Nc1cccc(Cl)c1"
reading_unit = "%"
measurement = 98.4


Here is the next item to consider.
-- ask Query (molecule): Cc1ccc2c(n1)C(=O)C(Cl)=C(Nc1ccccc1C(C)C)C2=O ; field requested: growth
-- reply 49.8

----------
Measured growth by item
Tested on: U251 CNS
Experiment: NCI-60 one-dose screen, 48 h (100 = growth as untreated, 0 = no growth, -100 = all killed)
Conditions: 10 µM unless noted
Experimental: Growth inhibition of the U251 human tumor cell line is measured as a screen for anti-cancer activity. Cells are grown in 96 well plates and exposed to the test compound for 48 hours. Compounds are tested at a single concentration, which is 10^-5 M for most compounds. The reported endpoint is percent growth (GI% or GIPRCNT), where numbers from 0 - 100% represent growth inhibition, and numbers from -100% - 0 represent cell death. For example, a value of 40 represents 60% growth inhibition. […]
This is part of a sample that, as a whole, favours compounds with a hit. Of some 83,000 tested, about 20% had one in any assay. The source made the active and inactive calls. Rule for the calls: active = growth percent below 10; inactive = the rest.

-- ask Query (compound): COc1cc(C(=O)c2cnc(-c3c[nH]c4cccc(C)c34)[nH]2)cc(OC)c1OC ; field requested: growth
-- reply 17.7% (inactive)
